# System: BT-549
# experiment.notes: NCI tumour cell line growth inhibition, 48 h
The source made the active and inactive calls. Cut-off read from the data, not from the text of the source: active = GI50 up to about 1.1 µM and inactive = higher.
Labels: T (active), F (inactive)

compound: COc1cccc(-c2nc(-c3cnccn3)n(C3OC(CO)C(O)C3O)n2)c1 (centres undefined)
qualitative.label: F

compound: O=C1C2=C(SCCS2)C(=O)c2c(Sc3ccc(Cl)cc3)c(Sc3ccc(Cl)cc3)c(Sc3ccc(Cl)cc3)c(Sc3ccc(Cl)cc3)c21
qualitative.label: F

compound: C=C1C(=O)O[C@@H]2C(=O)[C@@H](C)[C@@H]3C=CC(=O)[C@@]3(C)[C@@H](OC(=O)/C(C)=C\C)[C@H]12
qualitative.label: T

compound: CO[C@@H]1[C@H](O)CC[C@]2(CO2)[C@H]1[C@@]1(C)O[C@@H]1CC=C(C)C
qualitative.label: F

###

# Test system: IGROV-1
# experiment.notes: NCI tumour cell line growth inhibition, 48 h
The source made the active and inactive calls. No stated cut-off is given here; in the data, active = GI50 up to about 1.1 µM and inactive = higher.

compound: Oc1ccc2c(c1)OCC1c3ccccc3OC21 (configuration not stated)
GI50: 51.9 µM (inactive)

compound: NC(=O)c1cc2ccccc2o/c1=N/c1ccccc1
GI50: > 100 µM (inactive)

compound: COc1cc(Br)cc2cc(-c3cn4c(n3)sc3ccccc34)c(=O)oc12
GI50: 14.7 µM (inactive)

compound: ClC1=C(Cl)C2OC3C=CCC3OC2C(Cl)=C1Cl (configuration not stated)
GI50: > 100 µM (inactive)

compound: CC(=O)OCCOCn1cc(C=O)c2ccccc21
GI50: > 100 µM (inactive)

compound: OC[C@H]1O[C@@H](Oc2cc(O)cc(/C=C/c3ccc(O)cc3)c2)[C@H](O)[C@@H](O)[C@@H]1O
GI50: > 100 µM (inactive)

compound: O=C1/C(=N\O)C2CCC1C2 (configuration not stated)
GI50: > 100 µM (inactive)

compound: CC1=C(SCCO)C(=O)c2ccccc2C1=O
GI50: 14.2 µM (inactive)

compound: CC(=O)OC1CCn2nnc(CO)c21 (configuration not stated)
GI50: > 100 µM (inactive)

compound: COc1ccc(C(SC2C(O)C(CO)OC2n2ccc(=O)[nH]c2=O)(c2ccccc2)c2ccc(OC)cc2)cc1 (configuration not stated)
GI50: 17.7 µM (inactive)

compound: CN1CN(c2ccccc2)C2(CCN(CC(C)(c3ccc(F)cc3)C3OCCCO3)CC2)C1=O (configuration not stated)
GI50: 18.5 µM (inactive)

compound: CCOC(=O)C(C)Sc1nnc(COc2ccc(Cl)cc2)n1-c1ccccc1 (configuration not stated)
GI50: 26.8 µM (inactive)

###

# System: UACC-62
# experiment.notes: NCI tumour cell line growth inhibition, 48 h
Activity calls are given as the source filed them. No stated cut-off is given here; in the data, active = GI50 up to about 1.1 µM and inactive = higher.
Labels: active, inactive

molecule: CCCCC(=O)OC[n+]1ccc2c(C)c3[nH]c4ccc(OC)cc4c3c(C)c2c1
target.or.test.system: UACC-62
qualitative.label: active

molecule: CN(C)c1ccc(/C=C2\C[C@H]3[C@@H]4CC=C5C[C@@H](O)CC[C@]5(C)[C@H]4CC[C@]3(C)[C@H]2O)cc1
target.or.test.system: UACC-62
qualitative.label: inactive

molecule: CS(=O)(=O)OCCN1CCN(C(=O)c2cccc3c(Nc4ccc(S(N)(=O)=O)cc4)c4ccccc4nc23)CC1
target.or.test.system: UACC-62
qualitative.label: inactive

molecule: O=C(CC(=O)Nc1ccccc1O)Nc1ccccc1O
target.or.test.system: UACC-62
qualitative.label: inactive

molecule: Cc1[nH]c2ccccc2c1/C=C/c1c(C)[nH]c2ccccc12
target.or.test.system: UACC-62
qualitative.label: inactive

molecule: NNC(=O)CCCCCCCC(=O)O
target.or.test.system: UACC-62
qualitative.label: inactive

molecule: O=C1CCC2CCOc3ccc(O)c1c32 (stereo not given)
target.or.test.system: UACC-62
qualitative.label: inactive

molecule: Cc1ccccc1/N=N/c1c(O)ccc2ccccc12
target.or.test.system: UACC-62
qualitative.label: inactive

molecule: Cc1nn(-c2ccccc2)c2nc3c(c(C)nn3-c3ccccc3)c(-c3ccc(C(F)(F)F)cc3)c12
target.or.test.system: UACC-62
qualitative.label: inactive

molecule: C#CCNC(CCCNC(=N)N)C(=O)O (stereo not given)
target.or.test.system: UACC-62
qualitative.label: inactive
